Experiment: Concentration required to inhibit the growth of human Renal SN12C cells
Type: functional
MEASUREMENT_KIND: GI50

Below, each entry is followed by its recorded GI50 result.
For record "COc1ccc(OC)c2c3c(ncc12)-c1cc2c(cc1C3)OCO2" the listed GI50 is > 100 µM

For record "COc1cc2cnc3c(c2cc1OC)Cc1cc2c(cc1-3)OCO2" the listed GI50 is > 100 µM

For record "COc1cc2c(cc1OC)-c1ncc3cc4c(cc3c1C2)OCO4" the listed GI50 is > 100 µM

***
For record "COc1cc2c(cc1OC)-c1ncc3cc(OC)c(OC)cc3c1C2" the listed GI50 is > 50 µM
